Field: viability at 10 µM. Provide a value for each of the molecules that follow.
test system: SJSA-1; assay: Cytotoxicity against human SJSA1 cells assessed as cell viability at 10 uM after 24 hrs by MTT assay relative to control; format: functional; conditions: SJSA-1, 24 h, read-out: Activity

Study these solved cases before continuing.
[[record]]
smiles_repr = "C=C1C(=O)O[C@@H]2[C@H]3O[C@]3(C)CC/C=C(/C)[C@@H](OC(=O)c3ccc4ccccc4c3)C[C@@H]12"
result = "100%"

[[record]]
smiles_repr = "C=C1C(=O)O[C@@H]2[C@H]3O[C@]3(C)CC/C=C(/C)[C@@H](OC(=O)Nc3cc(C(F)(F)F)cc(C(F)(F)F)c3)C[C@@H]12"
result = "68.2%"

[[record]]
smiles_repr = "C=C1C(=O)O[C@@H]2[C@H]3O[C@]3(C)CC/C=C(/COC(=O)Nc3ccc(F)cc3F)CC[C@@H]12"
result = "100%"

[[record]]
smiles_repr = "C=C1C(=O)O[C@@H]2[C@H]3O[C@]3(C)CC/C=C(/COC(=O)c3ccc(C(F)(F)F)cc3)CC[C@@H]12"
result = "73.6%"


Tell me its viability at 10 µM given C=C1C(=O)O[C@@H]2[C@H]3O[C@]3(C)CC/C=C(/C)[C@@H](OC(=O)Nc3ccccc3)C[C@@H]12 as the entry.
96.6%

----------
system: MDA-MB-231; assay: Cytotoxicity against human MDA-MB-231 cells assessed as cell viability after 24 hrs by MTT assay; format: functional; conditions: MDA-MB-231, 24 h, read-out: LC50 (the source's name)
Field: CC50. Provide a value for each of the molecules that follow.
Give bare numbers, in µM.

Study these solved cases before continuing.
[[record]]
molecule = "C=C1C(=O)O[C@@H]2[C@H]3O[C@]3(C)CC/C=C(/C)[C@@H](OC(=O)Nc3cc(C(F)(F)F)cc(C(F)(F)F)c3)C[C@@H]12"
result_number = 7.2

[[record]]
molecule = "C=C1C(=O)O[C@@H]2[C@H]3O[C@]3(C)CC/C=C(/COC(=O)Nc3cc(C(F)(F)F)cc(C(F)(F)F)c3)CC[C@@H]12"
result_number = 6.1

[[record]]
molecule = "C=C1C(=O)O[C@@H]2C3O[C@]3(C)CC/C=C(\\C)CC[C@@H]12 (stereo partly specified)"
result_number = 18.3

[[record]]
molecule = "C=C1C(=O)O[C@@H]2[C@H]3O[C@]3(C)CC/C=C(/C)[C@@H](OC(=O)c3ccc(C(F)(F)F)cc3C(F)(F)F)C[C@@H]12"
result_number = 5.7

[[record]]
molecule = "C=C1C(=O)O[C@@H]2[C@H]3O[C@]3(C)CC/C=C(/COC(=O)c3cc(C(F)(F)F)cc(C(F)(F)F)c3)CC[C@@H]12"
result_number = 6.2


Next, consider the following molecule.
Tell me its CC50 given C=C1C(=O)O[C@@H]2[C@H]3O[C@]3(C)CC/C=C(/C)[C@@H](OC(=O)c3cc(C(F)(F)F)cc(C(F)(F)F)c3)C[C@@H]12 as the entry.
3.8

----------
system: JeKo-1; assay: Cytotoxicity against human JeKo1 cells assessed as cell viability at 10 uM after 24 hrs by MTT assay relative to control; type: functional; conditions: JeKo-1, 24 h, read-out: Activity
Reported endpoint: viability at 10 µM (%)
Answers are plain numbers, in %.

Study these solved cases before continuing.
[[record]]
molecule = "C=C1C(=O)O[C@@H]2[C@H]3O[C@]3(C)CC/C=C(/COC(=O)Nc3ccccc3)CC[C@@H]12"
result_number = 16.6

[[record]]
molecule = "C=C1C(=O)O[C@@H]2[C@H]3O[C@]3(C)CC/C=C(/C)[C@@H](OC(C(=O)OCc3ccccc3)c3ccccc3)C[C@@H]12 (some centres not stated)"
result_number = -1.3

[[record]]
molecule = "C=C1C(=O)O[C@@H]2[C@H]3O[C@]3(C)CC/C=C(/C)[C@@H](OC(=O)Nc3ccccc3)C[C@@H]12"
result_number = 2.6

[[record]]
molecule = "C=C1C(=O)O[C@@H]2[C@H]3O[C@]3(C)CC/C=C(/C)[C@@H](OC(=O)Nc3ccc([N+](=O)[O-])cc3)C[C@@H]12"
result_number = 0

[[record]]
molecule = "C=C1C(=O)O[C@@H]2[C@H]3O[C@]3(C)CC/C=C(/COC(=O)Nc3ccc(F)cc3F)CC[C@@H]12"
result_number = -2.1

[[record]]
molecule = "C=C1C(=O)O[C@@H]2[C@H]3O[C@]3(C)CC/C=C(/COC(C(=O)OCc3ccccc3)c3ccccc3)CC[C@@H]12 (some centres not stated)"
result_number = 0.8


Next, consider the following molecule.
Tell me its viability at 10 µM given C=C1C(=O)O[C@@H]2[C@H]3O[C@]3(C)CC/C=C(/COC(=O)c3ccc4ccccc4c3)CC[C@@H]12 as the entry.
63.2
